# Target Or System: Integrin alpha2/beta1 (Homo sapiens, UniProt P05556+P17301)
# Sequence (P05556 whole entry): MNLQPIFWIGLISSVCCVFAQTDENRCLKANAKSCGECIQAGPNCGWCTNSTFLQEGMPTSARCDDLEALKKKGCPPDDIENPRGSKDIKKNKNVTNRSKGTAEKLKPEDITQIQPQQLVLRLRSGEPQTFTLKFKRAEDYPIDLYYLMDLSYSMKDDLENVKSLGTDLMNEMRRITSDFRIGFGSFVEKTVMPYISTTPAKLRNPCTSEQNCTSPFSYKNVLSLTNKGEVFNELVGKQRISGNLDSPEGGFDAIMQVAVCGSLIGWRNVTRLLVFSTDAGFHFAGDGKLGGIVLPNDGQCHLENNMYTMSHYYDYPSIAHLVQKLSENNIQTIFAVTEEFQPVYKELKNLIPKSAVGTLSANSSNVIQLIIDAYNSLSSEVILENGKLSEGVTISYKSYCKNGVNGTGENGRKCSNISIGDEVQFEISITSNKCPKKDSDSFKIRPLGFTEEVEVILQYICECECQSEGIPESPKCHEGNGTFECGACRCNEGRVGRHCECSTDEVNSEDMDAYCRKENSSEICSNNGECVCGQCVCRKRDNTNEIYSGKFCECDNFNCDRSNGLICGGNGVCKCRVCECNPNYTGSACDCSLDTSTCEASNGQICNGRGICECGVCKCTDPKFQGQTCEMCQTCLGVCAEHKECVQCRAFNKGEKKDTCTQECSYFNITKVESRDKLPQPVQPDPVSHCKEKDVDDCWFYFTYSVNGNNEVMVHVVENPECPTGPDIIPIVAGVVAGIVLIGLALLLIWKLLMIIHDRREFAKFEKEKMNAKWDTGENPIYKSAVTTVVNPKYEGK
# Sequence (P17301 whole entry): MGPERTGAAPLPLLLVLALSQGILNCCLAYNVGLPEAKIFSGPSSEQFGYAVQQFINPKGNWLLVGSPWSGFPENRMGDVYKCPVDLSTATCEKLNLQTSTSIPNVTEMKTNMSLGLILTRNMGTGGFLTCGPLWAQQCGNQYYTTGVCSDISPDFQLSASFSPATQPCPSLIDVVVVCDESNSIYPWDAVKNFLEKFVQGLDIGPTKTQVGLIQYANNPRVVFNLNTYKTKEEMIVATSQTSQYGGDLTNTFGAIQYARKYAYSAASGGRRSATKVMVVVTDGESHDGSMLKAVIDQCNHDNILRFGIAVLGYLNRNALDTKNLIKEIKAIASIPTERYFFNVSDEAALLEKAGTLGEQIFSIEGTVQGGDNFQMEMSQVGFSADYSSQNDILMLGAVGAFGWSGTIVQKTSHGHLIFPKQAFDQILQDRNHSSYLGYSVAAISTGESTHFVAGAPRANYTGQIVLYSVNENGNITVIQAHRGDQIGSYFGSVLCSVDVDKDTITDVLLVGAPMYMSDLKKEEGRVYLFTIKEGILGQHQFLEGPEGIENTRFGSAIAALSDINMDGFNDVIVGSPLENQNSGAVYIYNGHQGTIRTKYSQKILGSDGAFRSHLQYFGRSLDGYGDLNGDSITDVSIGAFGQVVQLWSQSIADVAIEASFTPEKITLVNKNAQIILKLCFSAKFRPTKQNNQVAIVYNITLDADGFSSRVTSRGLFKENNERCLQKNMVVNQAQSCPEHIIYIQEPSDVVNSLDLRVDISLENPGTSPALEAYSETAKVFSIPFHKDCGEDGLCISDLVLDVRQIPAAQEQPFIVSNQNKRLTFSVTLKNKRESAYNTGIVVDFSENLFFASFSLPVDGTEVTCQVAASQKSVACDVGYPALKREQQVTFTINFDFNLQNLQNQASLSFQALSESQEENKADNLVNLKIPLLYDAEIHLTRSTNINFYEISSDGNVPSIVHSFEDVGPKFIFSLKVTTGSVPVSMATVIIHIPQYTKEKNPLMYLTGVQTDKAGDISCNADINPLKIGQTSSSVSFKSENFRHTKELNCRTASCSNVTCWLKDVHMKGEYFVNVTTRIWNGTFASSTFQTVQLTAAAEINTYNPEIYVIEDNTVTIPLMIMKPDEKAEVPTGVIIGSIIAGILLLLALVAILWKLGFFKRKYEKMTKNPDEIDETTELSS
# Assay Protocol: Antagonist activity at recombinant integrin alpha2 beta1 receptor (unknown origin) assessed as inhibition of interaction with biotinylated collagen type-1 after 3 hrs by solid phase ELISA-type assay
Consider the following molecules; for each one, report its IC50.
One number for each entry, in nM.

- Molecule: "Cl.O=C1N[C@H](C(=O)O)Cc2cn(cn2)C/C=C/COc2ccc(Cl)c1c2"
  Experimental Result: 4

Now look at this entry.
Inquiry: Determine from records and report IC50 for O=C1N[C@H](C(=O)O)Cc2cn(cn2)C/C=C/COc2ccc1c(Cl)c2 (mixture of isomers)
Reply text: 470

----------
# Assay Protocol: Plasma concentration in Sprague-Dawley rat at 4.8 mg/kg, iv administered as bolus dose measured after 1 hr by LC-MS/MS analysis
# Type: ADME, organism-based
# Set-up: dose 4.8 mg/kg, route intravenous
Quantity: concentration at 1 h

Inquiry: Query concentration at 1 h for Cl.O=C1N[C@H](C(=O)O)Cc2cn(cn2)C/C=C/COc2ccc(Cl)c1c2
Reply text: < 10 ng/mL

----------
# Assay Protocol: Initial plasma concentration in Sprague-Dawley rat at 4.8 mg/kg, iv administered as bolus dose by LC-MS/MS analysis
# Type: ADME, organism-based
# Set-up: dose 4.8 mg/kg, route intravenous
Quantity: C0 (ng/mL)
Answers are plain numbers, in ng/mL.

Inquiry: Return C0 for the following compound: Cl.O=C1N[C@H](C(=O)O)Cc2cn(cn2)C/C=C/COc2ccc(Cl)c1c2
Reply text: 1700

----------
Hi there, I'd appreciate the recorded IC50 for every entry that follows.
# Target Or System: Integrin alpha2/beta1 (Homo sapiens, UniProt P05556+P17301)
# Assay Protocol: Antagonist activity at recombinant integrin alpha2 beta1 receptor (unknown origin) assessed as inhibition of interaction with biotinylated collagen type-1 after 3 hrs by solid phase ELISA-type assay
Numbers only, in nM.

Recorded results for 4 compounds are shown here.
- Compound: "O=C1N[C@H](C(=O)O)Cc2cccc(c2)OCCCCOc2ccc(Cl)c1c2"
  Quantity: "IC50"
  Experimental Result: 142
- Compound: "O=C1N[C@H](C(=O)O)Cc2ccc(cc2)OC/C=C/COc2cccc(Cl)c21"
  Quantity: "IC50"
  Experimental Result: 178
- Compound: "O=C1N[C@H](C(=O)O)Cn2cc(nn2)CCCCOc2ccc(Cl)c1c2"
  Quantity: "IC50"
  Experimental Result: 1300
- Compound: "O=C1N[C@H](C(=O)O)Cc2cccc(c2)OC/C=C/COc2cc(C(F)(F)F)c1cn2"
  Quantity: "IC50"
  Experimental Result: 1900

// for each compound below, give its IC50
1. O=C1N[C@H](C(=O)O)Cc2cccc(c2)OC/C=C/COc2cccc(Cl)c21
2. O=C1N[C@@H](C(=O)O)Cc2cn(cn2)C/C=C/COc2ccc(Cl)c1c2
3. O=C1N[C@H](C(=O)O)Cc2cn(cn2)CCCCCOc2ccc(Cl)c1c2
4. O=C1N[C@H](C(=O)O)Cc2ccc(cc2)OC/C=C/COc2ccc(Cl)c1c2
5. O=C1N[C@H](C(=O)O)Cc2ccc(cc2)OCCCCOc2ccc(Cl)c1c2
6. Cc1ccc2cc1C(=O)N[C@H](C(=O)O)Cc1cccc(c1)OC/C=C/CO2
7. O=C1N[C@H](C(=O)O)Cc2cn(cn2)CCCCOc2ccc(Cl)c1c2

Reply text:
1: 588; 2: 909; 3: 731; 4: 101; 5: 731; 6: 1050; 7: 366

Batch of 3 compounds: report IC50 for each.
1. O=C1N[C@H](C(=O)O)Cc2cn(cn2)CC/C=C/COc2ccc(Cl)c1c2 (mixture of isomers)
2. O=C1N[C@H](C(=O)O)Cc2cccc(c2)OC/C=C/COc2ccc([N+](=O)[O-])c1c2
3. O=C1N[C@H](C(=O)O)Cc2cn(nn2)C/C=C/COc2ccc(Cl)c1c2

Reply text:
270
667
34

----------
# Target Or System: Integrin alpha-5/beta-1 (Homo sapiens, UniProt P05556+P08648)
# Sequence (P05556 21-798 limits assumed): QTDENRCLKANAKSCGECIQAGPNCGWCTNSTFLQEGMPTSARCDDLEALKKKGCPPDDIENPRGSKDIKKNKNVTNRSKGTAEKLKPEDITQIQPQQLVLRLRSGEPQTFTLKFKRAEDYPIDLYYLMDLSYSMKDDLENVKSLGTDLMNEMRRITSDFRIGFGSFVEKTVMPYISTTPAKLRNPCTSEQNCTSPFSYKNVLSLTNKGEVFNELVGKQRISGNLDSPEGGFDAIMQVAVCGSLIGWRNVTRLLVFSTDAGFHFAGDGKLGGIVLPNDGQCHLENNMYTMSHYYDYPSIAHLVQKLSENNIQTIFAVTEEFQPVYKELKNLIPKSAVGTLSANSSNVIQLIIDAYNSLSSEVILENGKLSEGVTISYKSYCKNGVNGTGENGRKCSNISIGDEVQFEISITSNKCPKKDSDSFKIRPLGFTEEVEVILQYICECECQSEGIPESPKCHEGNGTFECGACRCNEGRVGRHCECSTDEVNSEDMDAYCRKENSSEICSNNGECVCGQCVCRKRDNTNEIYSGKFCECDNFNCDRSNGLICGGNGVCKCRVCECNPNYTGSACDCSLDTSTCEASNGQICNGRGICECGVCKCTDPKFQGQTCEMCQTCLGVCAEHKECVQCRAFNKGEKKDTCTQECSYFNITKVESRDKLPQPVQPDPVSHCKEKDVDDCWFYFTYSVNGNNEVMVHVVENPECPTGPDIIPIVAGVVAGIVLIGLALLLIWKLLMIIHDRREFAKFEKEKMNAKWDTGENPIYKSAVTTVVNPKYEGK
# Sequence (P08648 42-894 limits assumed): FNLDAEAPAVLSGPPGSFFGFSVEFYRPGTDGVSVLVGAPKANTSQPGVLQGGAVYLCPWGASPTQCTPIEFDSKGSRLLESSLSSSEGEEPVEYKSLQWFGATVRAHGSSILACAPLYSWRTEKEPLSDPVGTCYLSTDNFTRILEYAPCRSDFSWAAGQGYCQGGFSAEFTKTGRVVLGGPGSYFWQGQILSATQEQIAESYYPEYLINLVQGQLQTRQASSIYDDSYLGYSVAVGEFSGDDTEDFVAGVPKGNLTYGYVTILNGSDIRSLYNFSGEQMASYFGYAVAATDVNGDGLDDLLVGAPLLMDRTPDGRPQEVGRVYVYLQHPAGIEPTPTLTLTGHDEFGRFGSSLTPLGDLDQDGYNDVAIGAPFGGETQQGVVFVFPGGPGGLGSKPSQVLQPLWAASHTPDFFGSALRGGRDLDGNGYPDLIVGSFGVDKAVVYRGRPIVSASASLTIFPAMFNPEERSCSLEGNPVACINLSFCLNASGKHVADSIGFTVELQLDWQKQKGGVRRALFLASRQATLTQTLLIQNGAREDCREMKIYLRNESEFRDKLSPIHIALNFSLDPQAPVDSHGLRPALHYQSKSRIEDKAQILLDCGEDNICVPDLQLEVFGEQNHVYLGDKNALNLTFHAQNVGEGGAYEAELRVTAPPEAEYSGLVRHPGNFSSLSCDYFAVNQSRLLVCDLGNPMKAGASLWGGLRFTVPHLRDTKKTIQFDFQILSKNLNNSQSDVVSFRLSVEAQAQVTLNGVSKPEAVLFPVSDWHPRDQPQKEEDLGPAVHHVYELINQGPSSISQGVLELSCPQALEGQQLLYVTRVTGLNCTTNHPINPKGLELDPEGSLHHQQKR
# Sequence (P08648 895-1049 limits assumed): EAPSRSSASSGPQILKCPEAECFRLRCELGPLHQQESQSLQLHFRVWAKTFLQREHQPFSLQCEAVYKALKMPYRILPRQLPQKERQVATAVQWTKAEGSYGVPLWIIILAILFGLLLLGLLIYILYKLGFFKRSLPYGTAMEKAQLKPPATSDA
# Assay Protocol: Antagonist activity at integrin alpha5beta1 receptor (unknown origin) assessed as inhibition of interaction with biotinylated collagen type-1 after 3 hrs by solid phase ELISA-type assay
Quantity: IC50 (nM)
Answers are plain numbers, in nM.

Inquiry: Tell me its IC50 given Cl.O=C1N[C@H](C(=O)O)Cc2cn(cn2)C/C=C/COc2ccc(Cl)c1c2 as the entry.
Reply text: 74

----------
# Assay Protocol: Solubility of the compound at pH 7.4 at 25 degC
# Format: physicochemical
# Stated Conditions: buffer
Quantity: solubility
Form field: result (number plus unit)

Inquiry: Output solubility of Cl.O=C1N[C@H](C(=O)O)Cc2cn(cn2)C/C=C/COc2ccc(Cl)c1c2
Reply text: 1540 µg/mL

----------
# Assay Protocol: Drug metabolism in Swiss CD-1 mouse liver microsomes at 5 uM after 20 mins
# Assay type: ADME, Microsome
# Stated Conditions: read-out: Drug metabolism
Quantity: metabolised at 20 min, 5 µM (%)
One number for each entry, in %.

Inquiry: # return recorded metabolised at 20 min, 5 µM for input Cl.O=C1N[C@H](C(=O)O)Cc2cn(cn2)C/C=C/COc2ccc(Cl)c1c2
Reply text: 0

----------
# Target Or System: Integrin alpha2/beta1 (Homo sapiens, UniProt P05556+P17301)
# Assay Protocol: Antagonist activity at recombinant integrin alpha2 beta1 receptor (unknown origin) assessed as inhibition of interaction with biotinylated collagen type-1 after 3 hrs by solid phase ELISA-type assay
pIC50: −log10 of the molar value.
Entry flag: 1 if pIC50 reaches 7; 0 if it does not.

Look over these answered cases.
- Compound: "O=C1N[C@H](C(=O)O)Cc2cccc(c2)OCCCCOc2cccc(Cl)c21"
  Target Or System: "Integrin alpha2/beta1 (Homo sapiens, UniProt P05556+P17301)"
  Label Class: 0
- Compound: "O=C1N[C@H](C(=O)O)Cc2cccc(c2)OC/C=C/COc2ccc(Cl)c1c2"
  Target Or System: "Integrin alpha2/beta1 (Homo sapiens, UniProt P05556+P17301)"
  Label Class: 0
- Compound: "O=C1N[C@H](C(=O)O)Cc2cn(cn2)C/C=C/Cc2ccc(Cl)c1c2"
  Target Or System: "Integrin alpha2/beta1 (Homo sapiens, UniProt P05556+P17301)"
  Label Class: 0

Inquiry: Hi team, for O=C1NC(C(=O)O)CCc2cn(cn2)CCCCOc2ccc(Cl)c1c2 (racemic) , is the recorded pIC50 at or above 7?
Reply text: 0

Inquiry: For this compound, is measured pIC50 7 or higher? O=C1N[C@H](C(=O)O)Cc2cn(cn2)C/C=C/COc2ccc(Cl)c1c2Cl
Reply text: 0

----------
# Assay Protocol: Drug metabolism in human liver microsomes at 5 uM after 20 mins
# Type: ADME
# Stated Conditions: read-out: Drug metabolism
Quantity: metabolised at 20 min, 5 µM

Inquiry: Please give the documented metabolised at 20 min, 5 µM of Cl.O=C1N[C@H](C(=O)O)Cc2cn(cn2)C/C=C/COc2ccc(Cl)c1c2
Reply text: 3%

----------
# Assay Protocol: Volume of distribution at steady state in Sprague-Dawley rat at 4.8 mg/kg, iv administered as bolus dose by LC-MS/MS analysis
# Assay type: ADME, organism-based
# Design: dose 4.8 mg/kg, route intravenous
# Stated Conditions: in vivo, read-out: Vdss
Quantity: Vd (L/kg)
One number for each entry, in L/kg.

Inquiry: In one line, give reported Vd of the entry Cl.O=C1N[C@H](C(=O)O)Cc2cn(cn2)C/C=C/COc2ccc(Cl)c1c2 .
Reply text: 3.6

----------
# Target Or System: Voltage-gated inwardly rectifying potassium channel KCNH2 (Homo sapiens)
# Sequence (Q12809 whole entry): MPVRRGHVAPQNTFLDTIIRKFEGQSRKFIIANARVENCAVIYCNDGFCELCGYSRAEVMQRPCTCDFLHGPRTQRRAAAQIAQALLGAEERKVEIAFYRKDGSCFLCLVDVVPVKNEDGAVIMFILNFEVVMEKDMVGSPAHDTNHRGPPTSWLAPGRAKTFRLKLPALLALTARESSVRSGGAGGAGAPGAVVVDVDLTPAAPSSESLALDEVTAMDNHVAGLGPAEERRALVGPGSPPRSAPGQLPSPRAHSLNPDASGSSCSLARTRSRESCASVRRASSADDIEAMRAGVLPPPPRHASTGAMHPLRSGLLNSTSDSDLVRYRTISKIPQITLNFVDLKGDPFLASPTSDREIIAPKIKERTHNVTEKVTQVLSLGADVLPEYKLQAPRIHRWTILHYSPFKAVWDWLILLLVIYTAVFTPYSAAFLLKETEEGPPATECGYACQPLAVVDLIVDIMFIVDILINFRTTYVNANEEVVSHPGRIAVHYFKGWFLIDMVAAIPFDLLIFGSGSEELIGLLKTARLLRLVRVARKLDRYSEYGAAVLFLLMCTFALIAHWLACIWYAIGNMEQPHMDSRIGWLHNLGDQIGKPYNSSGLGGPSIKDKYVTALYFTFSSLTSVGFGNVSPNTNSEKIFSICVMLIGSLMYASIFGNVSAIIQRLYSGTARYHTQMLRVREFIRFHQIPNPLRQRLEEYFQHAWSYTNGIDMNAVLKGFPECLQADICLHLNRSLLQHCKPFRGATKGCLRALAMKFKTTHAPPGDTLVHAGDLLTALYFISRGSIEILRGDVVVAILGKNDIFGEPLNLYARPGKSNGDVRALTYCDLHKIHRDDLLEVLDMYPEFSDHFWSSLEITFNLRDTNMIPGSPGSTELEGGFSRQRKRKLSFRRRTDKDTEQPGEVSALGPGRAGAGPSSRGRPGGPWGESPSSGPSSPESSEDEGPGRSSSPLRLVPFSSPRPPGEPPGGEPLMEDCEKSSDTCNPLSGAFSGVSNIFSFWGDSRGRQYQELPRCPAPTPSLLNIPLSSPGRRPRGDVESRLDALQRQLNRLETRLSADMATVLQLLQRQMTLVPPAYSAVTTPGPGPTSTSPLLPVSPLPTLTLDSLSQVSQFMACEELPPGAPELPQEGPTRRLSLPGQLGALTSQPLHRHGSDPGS
# Assay Protocol: Inhibition of human ERG expressed in CHO cells by patch clamp assay
pIC50: −log10 of the molar value.
Quantity: pIC50

Inquiry: Hello, please tell me recorded pIC50 for this one: Cl.O=C1N[C@H](C(=O)O)Cc2cn(cn2)C/C=C/COc2ccc(Cl)c1c2
Reply text: < 5.00

----------
# Assay Protocol: Drug excretion in Sprague-Dawley rat urine at 4.8 mg/kg, iv administered as bolus dose measured after 24 hrs by LC-MS/MS analysis
# Type: ADME, organism-based
# Set-up: dose 4.8 mg/kg, route intravenous
# Stated Conditions: read-out: Drug excretion
Quantity: dose excreted at 24 h
# do not omit the unit; it follows the number

Inquiry: Input Cl.O=C1N[C@H](C(=O)O)Cc2cn(cn2)C/C=C/COc2ccc(Cl)c1c2 , output reported dose excreted at 24 h.
Reply text: 24%

----------
# Assay Protocol: Drug metabolism in Sprague-Dawley rat liver microsomes at 5 uM after 20 mins
# Format: ADME
# Stated Conditions: read-out: Drug metabolism
Quantity: metabolised at 20 min, 5 µM
Answer with the figure and its unit, nothing else.

Inquiry: Supply metabolised at 20 min, 5 µM value. Item: Cl.O=C1N[C@H](C(=O)O)Cc2cn(cn2)C/C=C/COc2ccc(Cl)c1c2
Reply text: 0%
